# Tgt: Human urinary kallikrein (Homo sapiens, UniProt P06870)
# Construct: Human urinary kallikrein (hereinafter "HUK") was highly purified using a modification of published methods; from tissue; host or cells: human urine
# Sequence (P06870 25-262): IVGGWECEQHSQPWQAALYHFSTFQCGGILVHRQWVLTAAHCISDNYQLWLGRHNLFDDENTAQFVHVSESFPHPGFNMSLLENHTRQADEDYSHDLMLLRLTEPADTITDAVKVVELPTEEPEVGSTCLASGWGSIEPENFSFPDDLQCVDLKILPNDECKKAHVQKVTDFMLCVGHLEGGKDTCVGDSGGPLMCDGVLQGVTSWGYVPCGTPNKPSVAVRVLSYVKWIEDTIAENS
# Experiment description: KI determination: inhibition of HUK cleavage of chromogenic substrate S-2266
# Assay type: biochemical
# Assay context: HUK, S-2266, text; read-out: KI values
# Method: Human urinary kallikrein (hereinafter "HUK") was highly purified using a modification of published methods that employ ultrafiltration, aprotinin-CH-sepharose affinity chromatography, and Sephadex G-100 gel filtration [ole-MoiYoi et al., Proc. Natl. Acad. Sci. USA 76: 3121-3125 (1979)]. […] The pH of each fraction was determined immediately upon elution, and the fraction was neutralized by addition of 2.0 ml of 2M Tris-HCL buffer (pH 8.0). […]
Ada = not defined here
Property measured: pKi
Numbers only, as −log10 of the molar value.

Asked: Given the substance Ada-Phe-Arg-Ser-Val-Gln-NH2 (Ada-FRSVQ-NH2; reading uncertain; also: printed as Ada-Phe-Arg-Ser-Val-Gln-NH2) [KKI-8] , what is its reported pKi?
Given back: 5.38

###

Provide the reported IC50 of each item.
# Tgt: Human urinary kallikrein (Homo sapiens, UniProt P06870)
Non-standard residues stand in square brackets, D forms with d. Residues, ends and D or L forms follow the SMILES beside them. *: point of attachment. Cha = N[C@@H](CC1CCCCC1)C(=O)O; dChg = N[C@@H](C(=O)O)C1CCCCC1; dPhg = N[C@@H](C(=O)O)c1ccccc1; pNA = O=[N+]([O-])c1ccc(N*)cc1; Chg = N[C@H](C(=O)O)C1CCCCC1
One number for each entry, in µM.

>>> experimental_result("NCCCC[C@H](NC(=O)[C@H](CC1CCCCC1)NC(=O)[C@H](N)C1CCCCC1)C(=O)Nc1ccc([N+](=O)[O-])cc1 [D-Chg--Cha--Lys--4NA] (H-[dChg]-[Cha]-Lys-pNA)")
150
>>> experimental_result("CC(C)C[C@H](NC(=O)[C@@H](N)C1CCCCC1)C(=O)N[C@@H](CCCNC(=N)N)C(=O)Nc1ccc([N+](=O)[O-])cc1 [L-Chg--Leu--Arg--4NA] (H-[Chg]-Leu-Arg-pNA)")
18.7
>>> experimental_result("N=C(N)NCCC[C@H](NC(=O)[C@H](Cc1ccccc1)NC(=O)[C@H](N)C1CCCCC1)C(=O)Nc1ccc([N+](=O)[O-])cc1 [D-Chg--Phe--Arg--4NA] (H-[dChg]-Phe-Arg-pNA)")
3.7
>>> experimental_result("CC[C@H](C)[C@H](N)C(=O)N[C@@H](CC1CCCCC1)C(=O)N[C@@H](CCCNC(=N)N)C(=O)Nc1ccc([N+](=O)[O-])cc1 [L-Ile--Cha--Arg--4NA] (H-Ile-[Cha]-Arg-pNA)")
10.5
>>> experimental_result("N=C(N)NCCC[C@H](NC(=O)[C@H](CC1CCCCC1)NC(=O)[C@@H](N)C1CCCCC1)C(=O)Nc1ccc([N+](=O)[O-])cc1 [L-Chg--Cha--Arg--4NA] (H-[Chg]-[Cha]-Arg-pNA)")
11.5

Next:
Asked: Given the molecule N=C(N)NCCC[C@H](NC(=O)[C@H](CC1CCCCC1)NC(=O)[C@H](N)c1ccccc1)C(=O)Nc1ccc([N+](=O)[O-])cc1 [D-0Gly--Cha--Arg--4NA] (H-[dPhg]-[Cha]-Arg-pNA) , what is its reported IC50?
Given back: 7.4
